- measured-target: CDK2/cyclin A (as used in the binding assay) (UniProt P24941 1-298; P20248 1-432)
- assay-summary: FP binding assay
No end group written: not given here. *: point of attachment. Pyrazole N‑cap, 4‑chlorophenylpyrazole (R1 H, R2 Cl, R3 H, R4 CH3, W N, X N, Y C, Z C) = not defined here; X1 = 1‑(3,5-dichlorophenyl)‑5‑methyl‑1H‑1,2,4‑triazole‑3‑carbonyl, Cc1nc(C(=O)*)nn1-c1cc(Cl)cc(Cl)c1; Pyrazole N‑cap (R1 Cl, R2 H, R3 H, R4 CH3, W N, X N, Y C, Z C) = not defined here
measurement-name: pIC50
Note on pIC50: it is the negative log10 of concentration, concentration in mol/L.

Check the records and state pIC50 for X1-RLIF (also called SCCP 5773; 3,5-dichlorophenyl triazole) [1-(3,5-dichlorophenyl)-5-methyl-1H-1,2,4-triazole-3-carbonyl-RLIF] 5.40

Check the records and state pIC50 for {Pyrazole N‑cap, 4‑chlorophenylpyrazole (R1 H, R2 Cl, R3 H, R4 CH3, W N, X N, Y C, Z C)}-RLIF (reading uncertain; also: cap structure given only by scaffold parameters, also called 4-chlorophenylpyrazole) [SCCP 5765 (Pyrazole N-cap ligated to RLIF)] 4.47

Check the records and state pIC50 for {Pyrazole N‑cap (R1 Cl, R2 H, R3 H, R4 CH3, W N, X N, Y C, Z C)}-RLIF (reading uncertain; also: cap structure given only by scaffold parameters) [SCCP 5764 (Pyrazole N-cap ligated to RLIF)] 4.92
